Test: chemical genetic growth profiling, strain panel (AID 1159580);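 also: tested at 20 µM; growth read once vehicle control cultures reached saturation at 30 °C; 1 = growth at the plate median or of vehicle wells; lower values mean less growth of the strain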
Details: S. cerevisiae deletion strains, growth OD, locus YBR009C, strain hhf1, hits give low values
About 2,000 (36%) of roughly 5,500 compounds were called active. Inconclusive results (about 18%) are left out. The list shows a part of the results.
Readings of normalized growth for the listed molecules

{"Molecule": "Nc1ccn(C2O[C@H](CO)[C@@H](O)[C@@H]2O)c(=O)n1 (stereo not given in full)", "normalized growth": 0.972}
{"Molecule": "O=C1[C@H](CCC(O)c2ccc(F)cc2)[C@@H](c2ccc(O)cc2)N1c1ccc(F)cc1 (stereo not given in full)", "normalized growth": 0.981}
{"Molecule": "CC(C)NNC(=O)c1ccncc1", "normalized growth": 1.01}
{"Molecule": "O=C1CC2OCC=C3CN4CC[C@]56c7ccccc7N1C5[C@H]2[C@H]3CC46 (stereo not given in full)", "normalized growth": 1.02}
{"Molecule": "COC(=O)C1=CCCN(C)C1", "normalized growth": 0.986}
{"Molecule": "N[C@@H](CC(=O)N1CCn2c(nnc2C(F)(F)F)C1)Cc1cc(F)c(F)cc1F", "normalized growth": 0.949}
{"Molecule": "CO/N=C(\\C(=O)N[C@@H]1C(=O)N2C(C(=O)O)=C(CSc3nc(=O)c(O)nn3C)CS[C@H]12)c1csc(N)n1", "normalized growth": 0.985}
{"Molecule": "CO/N=C(\\C(=O)NC1C(=O)N2C(C(=O)O)=C(COC(N)=O)CSC12)c1ccco1 (stereo not given)", "normalized growth": 0.985}
{"Molecule": "COc1c2ccoc2c(OC)c2oc(=O)ccc12", "normalized growth": 0.923}
{"Molecule": "CO/N=C(\\C(=O)NC1C(=O)N2C(C(=O)OC(C)OC(C)=O)=C(COC(N)=O)CSC12)c1ccco1 (stereo not given)", "normalized growth": 0.994}
